System: 743489-274-T-PDC complex spheroid viability
assay info: Anticancer human tumor 743489-274-T-PDC patient-derived renal cell carcinoma cell line growth inhibition
run parameters: second compound 10 µM; first compound 1 µM; stronger effect = lower value
assay readout: viability, T/C (%)
Field format: number, assumed %, no unit text.

compound | assay readout | data value
Nc1ncn(C2CC(O)C(CO)O2)c(=O)n1 (centres undefined) + NC1CCC(NC2CC2c2ccccc2)CC1 | viability, T/C | 97.3
O=C(C=Cn1cnc(-c2cc(C(F)(F)F)cc(C(F)(F)F)c2)n1)NNc1cnccn1 + NC1CC1c1ccc(-c2cccc(O)c2)cc1 | viability, T/C | 57.4
CC1COCCN1c1cc(-c2ccnn2C)c2ccnc(-c3ccn[nH]3)c2n1 (centres undefined) + NC1CCC(NC2CC2c2ccccc2)CC1 | viability, T/C | 71.7
O=C(c1cc(Cc2n[nH]c(=O)c3ccccc23)ccc1F)N1CCN(C(=O)C2CC2)CC1 + NC1CC1c1ccc(-c2cccc(O)c2)cc1 | viability, T/C | 120
O=C(C=Cn1cnc(-c2cc(C(F)(F)F)cc(C(F)(F)F)c2)n1)NNc1cnccn1 + NC1CCC(NC2CC2c2ccccc2)CC1 | viability, T/C | 95.9

Looking up CC1COCCN1c1cc(C2(S(C)(=N)=O)CC2)nc(-c2ccnc3[nH]ccc23)n1 (centres undefined) + NC1CCC(NC2CC2c2ccccc2)CC1 , I see its viability, T/C listed as 121

Looking up Nc1ncn(C2CC(O)C(CO)O2)c(=O)n1 (centres undefined) + NC1CC1c1ccc(-c2cccc(O)c2)cc1 , I see its viability, T/C listed as 88.6

Looking up COc1cc(Nc2ncc3c(n2)-c2ccc(Cl)cc2C(c2c(F)cccc2OC)=NC3)ccc1C(=O)O + NC1CCC(NC2CC2c2ccccc2)CC1 , I see its viability, T/C listed as 93.8

Looking up CC1(C)CCC(CN2CCN(c3ccc(C(=O)NS(=O)(=O)c4ccc(NCC5CCOCC5)c([N+](=O)[O-])c4)c(Oc4cnc5[nH]ccc5c4)c3)CC2)=C(c2ccc(Cl)cc2)C1 + NC1CC1c1ccc(-c2cccc(O)c2)cc1 , I see its viability, T/C listed as 111

Looking up CC1COCCN1c1cc(-c2ccnn2C)c2ccnc(-c3ccn[nH]3)c2n1 (centres undefined) + NC1CC1c1ccc(-c2cccc(O)c2)cc1 , I see its viability, T/C listed as 43.6

Looking up CC(C)c1c(-c2ccccc2)nc2c(C#N)c[nH]n2c1=O + NC1CCC(NC2CC2c2ccccc2)CC1 , I see its viability, T/C listed as 121

###

Entries and their viability, T/C values follow.
Tested on: 743489-274-T-PDC complex spheroid viability
assay info: Anticancer human tumor 743489-274-T-PDC cell line growth inhibition;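 also: spheroids exposed to compounds for 7 days before readout; 100% = DMSO vehicle control wells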
run parameters: second compound 0.316 µM; first compound 0.00949 µM; stronger effect = lower value
Field format: number, assumed %, no unit text.

Some entries whose results are on file:
compound | assayed system | viability, T/C [%]
CCN(c1cc(-c2ccc(CN3CCOCC3)cc2)cc(C(=O)NCc2c(C)cc(C)[nH]c2=O)c1C)C1CCOCC1 + NC1CC1c1ccc(-c2cccc(O)c2)cc1 | 743489-274-T-PDC complex spheroid viability | 111
Nc1ccn(C2OC(CO)C(O)C2(F)F)c(=O)n1 (configuration not stated) + NC1CCC(NC2CC2c2ccccc2)CC1 | 743489-274-T-PDC complex spheroid viability | 74.6
CCc1c2c(nc3ccc(O)cc13)-c1cc3c(c(=O)n1C2)COC(=O)[C@]3(O)CC + NC1CCC(NC2CC2c2ccccc2)CC1 | 743489-274-T-PDC complex spheroid viability | 54.2
COc1cc(C2c3cc4c(cc3C(OC3OC5COC(C)OC5C(O)C3O)C3COC(=O)C23)OCO4)cc(OC)c1O (configuration not stated) + NC1CC1c1ccc(-c2cccc(O)c2)cc1 | 743489-274-T-PDC complex spheroid viability | 103
O=C(C=Cc1cccc(S(=O)(=O)Nc2ccccc2)c1)NO + NC1CCC(NC2CC2c2ccccc2)CC1 | 743489-274-T-PDC complex spheroid viability | 102
NS(=O)(=O)OCC1CC(n2ccc3c(NC4CCc5ccccc54)ncnc32)CC1O (configuration not stated) + NC1CC1c1ccc(-c2cccc(O)c2)cc1 | 743489-274-T-PDC complex spheroid viability | 98.3

Could you now look at the following compound, please?
Looking up COc1cc(C2c3cc4c(cc3C(OC3OC5COC(C)OC5C(O)C3O)C3COC(=O)C23)OCO4)cc(OC)c1O (configuration not stated) + NC1CCC(NC2CC2c2ccccc2)CC1 , I see its viability, T/C listed as 105
